procedure.details: antimalarial activity against Dd2 strain (AID 2302);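 note: 0% = DMSO untreated growth and 100% = chloroquine plus artemisinin killed control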
assay.conditions: P. falciparum Dd2 in RBCs, LDH growth readout, 72 h; at 2 µM
Calls of active or inactive are those of the source.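 Rule for the calls: active = growth inhibition above 50% at the single 2 µM test dose, taken to imply half-maximal potency below 2 µM; inactive = the rest.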
Respond using exactly one of the listed classes: active, inactive

Below, 3 molecules whose answers are already recorded.
*Q* Per the assay record, what outcome was assigned to CC(Cc1ccc(C(=O)Nc2ccc(CC(C)NCCc3cccc(Cl)c3)cc2)cc1)NCCc1ccc(C(F)(F)F)cc1 (centres undefined) ?
*A* active

*Q* Per the assay record, what outcome was assigned to CN(CC(=O)Nc1cc(C(F)(F)F)ccc1-n1cncn1)Cc1nc2ccccc2s1 ?
*A* active

*Q* Per the assay record, what outcome was assigned to Cc1nnsc1C(=O)Nc1cccc(-c2cccc(-c3nc4c(C)cccc4[nH]3)c2)c1 ?
*A* active

---
*Q* Per the assay record, what outcome was assigned to COc1ccc(CNCc2cccc(-c3cccc(-c4nc5c(C)cccc5[nH]4)c3)c2)cc1 ?
*A* active

*Q* Per the assay record, what outcome was assigned to CC(C)(C)C1CCC(CC2=C(C(=O)O)c3ccccc3C2=O)CC1 (centres undefined) ?
*A* active

---

tgt: Plasmodium falciparum protein kinase 6 (PK6, PF3D7_1337100)
procedure.details: PfPK6 kinase inhibitors, biochemical, TCAMS library (AID 1159586)
assay.conditions: recombinant PfPK6, Kinase-Glo ATP depletion luminescence
Measured potencies and affinities stand elsewhere. Active and inactive are the calls of the source. No rule for the calls is given here.
measurement.type: outcome

The following molecules have reported results that may help.
*Q* Recorded outcome for CCN(CC)CCNC(=O)c1ccc(NC(=O)c2cc3c(C)nn(-c4ccc(Cl)cc4)c3s2)cc1 with Plasmodium falciparum protein kinase 6 (PK6, PF3D7_1337100), please?
*A* inactive

*Q* Recorded outcome for Cc1cccc2[nH]c(-c3cccc(-c4ccc(NC(=O)C5CCCO5)cc4)c3)nc12 (stereo not given) with Plasmodium falciparum protein kinase 6 (PK6, PF3D7_1337100), please?
*A* inactive

*Q* Recorded outcome for CC(C)(C)c1ccc(CN(C[C@@H](O)CNS(=O)(=O)c2cc(Cl)cc(Cl)c2)C(C)(C)C)cc1 with Plasmodium falciparum protein kinase 6 (PK6, PF3D7_1337100), please?
*A* inactive

*Q* Recorded outcome for COc1ccc(NC(=O)Nc2cccc(-c3cccc(-c4nc5c(C)cccc5[nH]4)c3)c2)cc1 with Plasmodium falciparum protein kinase 6 (PK6, PF3D7_1337100), please?
*A* inactive

---
*Q* Recorded outcome for CC(=O)Nc1ccc(C(=O)NC2CCN(c3ccnc4cc(Cl)ccc34)C2)cc1 (stereo not given) with Plasmodium falciparum protein kinase 6 (PK6, PF3D7_1337100), please?
*A* inactive

---

tgt: Plasmodium falciparum protein kinase 6 (PK6, PF3D7_1337100)
procedure.details: PfPK6 kinase inhibitors, biochemical, TCAMS library (AID 1159586)
assay.conditions: recombinant PfPK6, Kinase-Glo ATP depletion luminescence
Measured potencies and affinities stand elsewhere. The source made the active and inactive calls. How the calls were made is not given here.
measurement.type: outcome

*Q* Recorded outcome for Cc1ccc(S(=O)(=O)N2CCN(C(=O)c3cc(-c4cccs4)[nH]n3)CC2)c(C)c1 with Plasmodium falciparum protein kinase 6 (PK6, PF3D7_1337100), please?
*A* inactive

*Q* Recorded outcome for Cc1cccc2[nH]c(-c3ccc(-c4ccc(NC(=O)Nc5ccsc5)cc4)cc3)nc12 with Plasmodium falciparum protein kinase 6 (PK6, PF3D7_1337100), please?
*A* inactive

*Q* Recorded outcome for COc1ccc(CCN(C)CCCCc2ccc(NC(=O)c3cccc4c(=O)c5cc(F)ccc5sc34)cc2)cc1OC with Plasmodium falciparum protein kinase 6 (PK6, PF3D7_1337100), please?
*A* inactive

*Q* Recorded outcome for CN(C)Cc1cccc(-c2ccc(NC(=O)c3ccc4c(=O)n(CCN5CCCCC5)cnc4c3)cc2)c1 with Plasmodium falciparum protein kinase 6 (PK6, PF3D7_1337100), please?
*A* inactive

// switching to the query compound
*Q* Recorded outcome for Cc1cc(N[C@@H](CC(C)C)C(=O)Nc2ccccc2)nc(NCCc2ccccc2)n1 with Plasmodium falciparum protein kinase 6 (PK6, PF3D7_1337100), please?
*A* inactive

---

procedure.details: human hepatoma cell viability loss – ATP luminescence, cytotoxicity control for P. falciparum antimalarial project, primary screen (AID 2303);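 note: 0% = DMSO wells and 100% = digitonin-killed cells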
assay.conditions: HepG2 viability, 24-48 h, at 10 µM, hits give high values
measurement.type: inhibition (%)
Report as a plain number; the unit % is understood.

The following compounds have reported results that may help.
*Q* I have this compound here, NS(=O)(=O)c1cccc(Br)c1 , and I need its recorded inhibition.
*A* 0

*Q* I have this compound here, COc1ccc2nc3cc(Cl)ccc3c(Nc3ccc(O)c(CNC(C)C)c3)c2c1 , and I need its recorded inhibition.
*A* 5

*Q* I have this compound here, NC(N)=NN=Cc1ccc2c(c1)Cc1ccccc1-2 , and I need its recorded inhibition.
*A* 72

*Q* I have this compound here, NC1CCN(Cc2ccc(-c3cccc(-c4nc5ccc(F)cc5[nH]4)c3)cc2)C1 (stereo unspecified) , and I need its recorded inhibition.
*A* 47

---
*Q* I have this compound here, N#Cc1cccc(-c2ccc(C(=O)Nc3ccc4c(c3)CCN(C3CCC3)CC4)cn2)c1 , and I need its recorded inhibition.
*A* 26

*Q* I have this compound here, COc1cc2c(cc1OCCN1CCC(N3CCCC3)CC1)N(C(=O)/C=C/c1ccccc1Cl)CC2 , and I need its recorded inhibition.
*A* 38

*Q* I have this compound here, Cc1cc(-c2nc3ccc(C(=O)NCc4ccccc4)cc3n2C2CCN(C(=O)c3ccc(-c4ccccc4)cc3)CC2)ccn1 , and I need its recorded inhibition.
*A* 36

---

inhibition by entry:
tgt: L-lactate dehydrogenase (Plasmodium falciparum (isolate CDC / Honduras)) (UniProt Q27743)
Sequence (Q27743 whole entry, looked up): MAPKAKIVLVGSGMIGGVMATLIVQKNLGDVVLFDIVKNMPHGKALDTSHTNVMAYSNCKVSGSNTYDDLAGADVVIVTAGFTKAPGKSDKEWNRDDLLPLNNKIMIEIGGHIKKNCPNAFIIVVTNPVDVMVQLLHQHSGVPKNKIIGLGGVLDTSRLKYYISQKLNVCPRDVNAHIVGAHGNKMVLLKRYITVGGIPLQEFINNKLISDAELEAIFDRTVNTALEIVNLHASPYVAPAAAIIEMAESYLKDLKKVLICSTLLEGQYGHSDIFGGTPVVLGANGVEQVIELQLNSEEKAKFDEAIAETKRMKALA
procedure.details: PfLDH activity inhibition – cell lysate, 3D7 strain, counter-screen for P. falciparum growth inhibition project (AID 2304);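 note: 0% = vehicle and 100% = reference inhibitor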
assay.conditions: P. falciparum 3D7 crude extract, LDH APAD/NBT absorbance; at 2 µM; hits give high values
Report as a plain number; the unit % is understood.

*Q* I have this molecule here, NC(Cc1ccc(Cl)cc1)=NCCN1CCCCCC1 , and I need its recorded inhibition.
*A* -2

*Q* I have this molecule here, Cc1cc(NC(=O)c2cccs2)ccc1OC1CCN(Cc2ccc(F)cc2)CC1 , and I need its recorded inhibition.
*A* -1

*Q* I have this molecule here, O=S1(=O)NC2(CCN(CCc3ccc(Cl)cc3)CC2)Nc2cc(F)cc(F)c21 , and I need its recorded inhibition.
*A* -1

*Q* I have this molecule here, CCCN(CCC)CCCNc1ccc(C(=O)Nc2ccc(OCC)cc2)cc1[N+](=O)[O-] , and I need its recorded inhibition.
*A* -4

*Q* I have this molecule here, COc1ccc(CCNC(=O)c2ccc(-n3cc(NC(=O)c4cccnc4)cn3)cc2)cc1OC , and I need its recorded inhibition.
*A* 3

---

inhibition by entry:
procedure.details: human hepatoma cell viability loss – ATP luminescence, cytotoxicity control for P. falciparum antimalarial project, primary screen (AID 2303);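 note: 0% = DMSO wells and 100% = digitonin-killed cells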
assay.conditions: HepG2 viability, 24-48 h, at 10 µM, hits give high values
Report as a plain number; the unit % is understood.

*Q* I have this compound here, Cc1cc(Nc2ccc(O)cc2)nc2cccc(O)c12 , and I need its recorded inhibition.
*A* 22

*Q* I have this compound here, CO/C(=C\C=C\c1cc2cc(Cl)c(Cl)cc2[nH]1)C(=O)NCCCN1CCN(Cc2ccccc2)CC1 , and I need its recorded inhibition.
*A* 45

*Q* I have this compound here, CN(C)c1ccc(-c2ccc(C(=O)NC3CCN(Cc4cccc(C(F)(F)F)c4)CC3)s2)cc1 , and I need its recorded inhibition.
*A* 35

*Q* I have this compound here, CCc1cn2c3c(cc(C(=O)N[C@@H](Cc4cccc(F)c4)[C@H](O)CNC4CCOCC4)cc13)N(C)S(=O)(=O)CC2 , and I need its recorded inhibition.
*A* -2

// switching to the query compound
*Q* I have this compound here, Cc1cc(N[C@@H](Cc2ccccc2)C(=O)Nc2ccccc2)nc(NCCc2ccccn2)n1 , and I need its recorded inhibition.
*A* -3

---

procedure.details: inhibition of 3D7 malaria parasite growth – strain 3D7 (AID 2306);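 note: 0% = DMSO wells and 100% = chloroquine plus artemisinin control wells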
assay.conditions: P. falciparum 3D7 erythrocytic growth, LDH absorbance, 72 h; at 2 µM; hits give high values
Active and inactive are the calls of the source. No rule for the calls is given here.
growth inhibition by entry:

*Q* I have this molecule here, COc1ccc(NC(=O)CCNc2cc(C)nc(NCCc3ccccc3)n2)cc1 , and I need its recorded growth inhibition.
*A* 85% (active)

*Q* I have this molecule here, O=C(CCN(Cc1ccco1)c1nc(-c2ccc(F)cc2)nc2ccccc12)NC1CC1 , and I need its recorded growth inhibition.
*A* 94% (active)

*Q* I have this molecule here, COc1cccc2sc(Nc3nc(-c4ccccn4)cs3)nc12 , and I need its recorded growth inhibition.
*A* 94% (active)

*Q* I have this molecule here, C#CCN(Cc1cc2c(=O)[nH]c(N)nc2cc1C)c1ccc(C(=O)N[C@@H](CCC(=O)O)C(=O)O)cc1 , and I need its recorded growth inhibition.
*A* 92% (active)

// switching to the query molecule
*Q* I have this molecule here, CN(C)C(=O)c1ccc(CN(Cc2cccc(OC(C)(C)C)c2)Cc2ccc3c(c2)OCCO3)cc1 , and I need its recorded growth inhibition.
*A* 96% (active)
